test system: LoVo; assay: Cytotoxicity measured on LoVo colon cell line using MTT colorimetric assay; assay type: functional, cell-based; settings: Homo sapiens
pIC50: −log10 of the molar value.
Listed next: entries and their corresponding pIC50.
reported.metric: pIC50

> print(dat)
                            structure.string  endpoint.result
 1  CCOC(=O)Cn1c(=O)c(-c2ccc(OC)cc2)cc2c(OC)cc(OC)cc21           < 5.00
 2          COc1ccc(-c2cc3cccc(OC)c3nc2O)cc1           < 5.00
 3     COc1cc(OC)c2cc(-c3ccc(O)cc3)c(O)nc2c1           < 5.00
 4  COc1ccc(-c2cc3c(OC)cc(OC)cc3n(CC(=O)O)c2=O)cc1           < 5.00
 5  COc1ccc(-c2cc3c(OC)cc(OC)cc3n(CCN(C)C)c2=O)cc1           < 5.00
 6  COc1cc(OC)c2cc(-c3ccc(O)cc3)c(=O)n(C)c2c1           < 5.00
 7  COc1cc(OC)c2cc(-c3ccc(OCc4ccccc4)cc3)c(O)nc2c1           < 5.00
 8  COc1ccc(-c2cc3c(OC)cc(OC)cc3n(C)c2=S)cc1           < 5.00
 9  COc1ccc(-c2cc3c(OC)cc(OC)cc3n(CCC#N)c2=O)cc1           < 5.00
10  CCN(CC)C(=O)CCn1c(=O)c(-c2ccc(OC)cc2)cc2c(OC)cc(OC)cc21           < 5.00
11  COc1ccc(-c2cc3c(OC)cc(OC)cc3n(C)/c2=N\Nc2ccccn2)cc1           < 5.00
12  CC(=O)Oc1ccc(-c2cc3c(OC(C)=O)cc(OC(C)=O)cc3n(C)c2=O)cc1           < 5.00
13  COc1ccc(-c2cc3c(OC)cc(OC)c4c3n(c2=O)CCC4=O)cc1           < 5.00
14         Oc1ccc(-c2cc3c(O)cc(O)cc3nc2O)cc1           < 5.00
15  COc1ccc(-c2cc3c(OC)cc(OC)cc3n(CCCC#N)c2=O)cc1           < 5.00
16  COC(=O)CCn1c(=O)c(-c2ccc(OC)cc2)cc2c(OC)cc(OC)cc21           < 5.00
17  COc1ccc(-c2cc3c(OC)cc(OC)cc3n(C)/c2=N\Nc2ccccc2)cc1           < 5.00
18  COc1ccc(-c2cc3c(OC)cc(OC)cc3n(CCc3nnn[nH]3)c2=O)cc1           < 5.00
19        COc1cc(OC)c2cc(-c3ccccc3)c(O)nc2c1           < 5.00
20            COc1cccc2cc(-c3ccccc3)c(O)nc12           < 5.00
21  COc1ccc(-c2cc3c(OC)cc(OC)cc3n(C)c2=O)cc1           < 5.00
22  COc1ccc(-c2cc3c(OC)cc(OC)cc3n(CC#N)c2=O)cc1           < 5.00

Reference for the values: ChEMBL document CHEMBL1135464
